# ASSAYED_TARGET: T1, human vascular endothelial growth factor receptor-2 Fc chimera (KDR-Fc) (human, UniProt P35968 20-764)
# T1 construct: range 1-764; also called human VEGFR-2; not shown: human IgG1 Fc
# T1 sequence (P35968 20-764 limits assumed, change not shown, form in doubt): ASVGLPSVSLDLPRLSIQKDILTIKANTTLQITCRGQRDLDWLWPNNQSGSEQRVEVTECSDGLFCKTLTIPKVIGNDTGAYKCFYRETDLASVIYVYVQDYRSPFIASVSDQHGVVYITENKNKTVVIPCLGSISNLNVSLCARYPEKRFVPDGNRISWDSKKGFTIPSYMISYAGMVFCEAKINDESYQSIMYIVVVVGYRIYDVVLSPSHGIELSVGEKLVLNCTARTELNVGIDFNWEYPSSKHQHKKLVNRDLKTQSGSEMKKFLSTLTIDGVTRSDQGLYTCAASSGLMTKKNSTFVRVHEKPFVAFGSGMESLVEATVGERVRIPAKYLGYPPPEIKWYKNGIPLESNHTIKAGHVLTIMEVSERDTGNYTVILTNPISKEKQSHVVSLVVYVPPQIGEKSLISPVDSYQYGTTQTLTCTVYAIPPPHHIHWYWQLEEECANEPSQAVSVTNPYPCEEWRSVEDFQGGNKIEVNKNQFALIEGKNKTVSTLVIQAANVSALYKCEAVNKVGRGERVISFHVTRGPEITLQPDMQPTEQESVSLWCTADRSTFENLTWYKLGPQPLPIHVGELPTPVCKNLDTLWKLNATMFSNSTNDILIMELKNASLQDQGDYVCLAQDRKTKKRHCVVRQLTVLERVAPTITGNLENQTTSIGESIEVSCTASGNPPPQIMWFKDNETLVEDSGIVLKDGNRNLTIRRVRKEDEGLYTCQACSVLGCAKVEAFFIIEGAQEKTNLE
# TEST_SUMMARY: radioactive equilibrium binding, 1 nM KDR-Fc, % of input
MEASURE_NAME: Binding to 1 nM KDR, % (%)

Record excerpt, results attached:
# BINDER, Binding to 1 nM KDR, % (%)
measured = [
    ("3′G7 PR4 (designed binder) EVVAATPTSLLISWRHPHFPTRYYRITYGETGGNSPVQEFTVPLQPPTATISGLKPGVDYTITVYAVTEGQNDQLLFIPISINYRT", 19),
    ("3′H1 PR4 (designed binder) EVVAATPTSLLISWRHPHFPTRYYRITYGETGGNSPVQEFTVPLQPPTATISGLKPGVDYTITVYAVTFAQNDHQLFTPISINYRT", 22),
    ("4′H12 PR4 (designed binder) EVVAATPTSLLISWRHPHFPTRYYRITYGETGGNSPVQEFTVPLQPPTATISGLKPGVDYTITVYAVTVAHNDHELLTPISINYRT", 17),
]

P: 4′B7 PR4 (designed binder) EVVAATPTSLLISWRHPHFPTRYYRITYGETGGNSPVQEFTVPLQPPTATISGLKPGVDYTITVYAVTVAQNNHELLTPISINYRT
Q: 3′F3 PR4 (designed binder) EVVAATPTSLLISWRHPHFPTRYYRITYGETGGNSPVQEFTVPLQPPTATISGLKPGVDYTITVYAVTLGHNDRELLTPISINYRT
QUERY: Returns: the label, P or Q , whose recorded Binding to 1 nM KDR, % is the lower number. Please reply using the label of the selected record.
RESULT: P
(P: 16%, Q: 37%)
